Outcome: Met for melting point of at least 200 °C; Not met for anything lower.

>>> qualitative_label("COc1ccccc1-c1nnc2n1NC(c1ccccc1OC)S2 (stereo not given)")
"Not met"
>>> qualitative_label("O=S(=O)(Cl)c1ccc(F)cc1")
"Not met"
>>> qualitative_label("CCCCCCCCN(CCCCCCCC)CCCCCCCC")
"Not met"
>>> qualitative_label("NS(=O)(=O)c1ccccc1Cl")
"Not met"
>>> qualitative_label("Nc1ncc(Cl)cc1[N+](=O)[O-]")
"Not met"
>>> qualitative_label("Cc1nc(/C(C#N)=C/c2ccc(O)cc2)sc1/N=N/c1ccc(Cl)cc1")
"Met"
>>> qualitative_label("C1CC2CCCC(C1)C2")
"Not met"
>>> qualitative_label("COCCl")
"Not met"
>>> qualitative_label("O=Cc1c[nH]c2ccc(Cl)cc12")
"Met"
>>> qualitative_label("O=Cc1cc([N+](=O)[O-])cc(Br)c1O")
"Not met"
>>> qualitative_label("Cn1c(=O)cc(NN)c2ccccc21")
"Met"
>>> qualitative_label("COc1cc(C(=O)NS(=O)(=O)c2ccccc2C)ccc1Cc1cn(C)c2ccc(NC(=O)OC3CCCC3)cc12")
"Not met"
>>> qualitative_label("CCP(CC)CC")
"Not met"
>>> qualitative_label("O=C(NCCCc1ccccc1)c1cc([N+](=O)[O-])cc([N+](=O)[O-])c1")
"Not met"
>>> qualitative_label("CCCCCCCCCCCCCCCCCCOCC(O)CO (stereo not given)")
"Not met"
>>> qualitative_label("CCCCN1C(=O)c2ccccc2C1=O")
"Not met"
>>> qualitative_label("OCCN1CCN(CCCN2c3ccccc3Sc3ccc(Cl)cc32)CC1")
"Not met"

###

Value type: melting point (°C)

>>> measured_number("FC(F)(F)C(F)(F)C(F)(F)C(F)(F)C(F)(F)C(F)(F)C(F)(F)C(F)(F)C(F)(F)F")
-16
>>> measured_number("CC(C)=CCCC=C(C)C")
-74.4
>>> measured_number("OCC(O)CN1CCN(c2ccccc2)CC1 (stereo not drawn)")
105
>>> measured_number("CCOC(=O)C(C(=O)OCC)=C(C(=O)OCC)C(=O)OCC")
58
>>> measured_number("CC1(C)C(C=C2CCSC2=O)C1C(=O)OCc1coc(Cc2ccccc2)c1 (stereo not drawn)")
31
>>> measured_number("O=C(/C=C/Nc1ccccc1)c1ccc2c(c1)CCCC2")
175
>>> measured_number("C[Si](C)(C)O[Si](C)(C)O[Si](C)(C)O[Si](C)(C)O[Si](C)(C)O[Si](C)(C)C")
-59
>>> measured_number("O=C(O)c1cc(I)ccc1Br")
175
>>> measured_number("CC(=O)C1CC[C@]2(C)[C@H]3CC[C@]4(C)C(O)CC[C@H]4[C@@H]3CC[C@@]2(C)C1 (stereo partly drawn)")
152
>>> measured_number("CC(NC(=O)COCCN1C(=O)c2ccccc2C1=O)[P+]([O-])(Oc1ccccc1)Oc1ccccc1 (stereo not drawn)")
107
>>> measured_number("COCC(=O)N(c1c(C)cccc1C)N1CCOC1=O")
104
>>> measured_number("Nc1ccc(F)cc1O")
138
>>> measured_number("CC1NC2CCCCCCCC(=O)OC3CCC(CCCCCCCC(=O)OC1CC2)NC3C (stereo not drawn)")
121
>>> measured_number("CCCCCCCCCCCS")
-3
>>> measured_number("CCc1cn(C2CC(O)C(CO)O2)c(=O)[nH]c1=O (stereo not drawn)")
152
>>> measured_number("CCOC(=O)[C@]12C[C@@H](c3ccccc3)c3ccccc3[C@H]1c1ccccc1OC2=O")
162
>>> measured_number("Cc1cc[nH]c(=O)c1")
130
>>> measured_number("O=C(O)c1ccc2c(c1)C(=O)c1ccccc1C2=O")
291
>>> measured_number("O=C(O)CNc1ccccc1")
128
>>> measured_number("O=C(O)Cc1ccc(F)cc1Cl")
104
>>> measured_number("CC(=O)Nc1ccc(C=Cc2ccccc2)c([N+](=O)[O-])c1")
192
>>> measured_number("COC(=O)[C@]12c3ccccc3[C@]34c5ccccc5[C@H]1[C@@]32C(=O)O[C@@H]4C")
203
>>> measured_number("CCCC(=O)C(=O)O")
6.5
>>> measured_number("CC1CCC(C)(COC(=O)c2ccccc2C(=O)OCC2(C)CCC(C)C2(C)C)C1(C)C (stereo not drawn)")
80
>>> measured_number("CCOC(=O)C(CCc1ccccc1)NC(C)C(=O)N1Cc2ccccc2CC1C(=O)O (stereo not drawn)")
125
>>> measured_number("C=C1C(=O)C23C(OC(C)=O)CC4C5(C)CCCC4(C(OC)OC5)C2C(OC(C)=O)CC1C3OC(C)=O (stereo not drawn)")
71
>>> measured_number("COc1ccc(C=C2C(=O)OC(C)(C)OC2=O)cc1OC")
164

###

Form field: melting point (one value per entry).
Value type: melting point (°C)

>>> measured_number("Ic1cc(I)c(I)c(I)c1")
148
>>> measured_number("Cc1ccc(C=NC2=NC(C(F)(F)F)N=N2)cc1 (stereo not given)")
208
>>> measured_number("CC(=O)Oc1c(-c2ccccc2)[nH]c2cc([N+](=O)[O-])c(/C=C/c3ccccc3)cc12")
224
>>> measured_number("Cc1c(C(C)OC(=O)CCC(=O)O)oc2ccc(C3=CC(=O)OC3)cc12 (stereo not given)")
144
>>> measured_number("CC(=O)OCC(OC(C)=O)C(OC(C)=O)C(OC(C)=O)C(OC(C)=O)C(OC(C)=O)OC(C)=O (stereo not given)")
119
>>> measured_number("CCC(C(=O)O)c1ccc(-c2ccccc2)cc1 (stereo not given)")
124
>>> measured_number("CC(C)(C)c1ccc(-c2nnc(-c3ccc(-c4ccccc4)cc3)o2)cc1")
137
>>> measured_number("CC(=O)N1C(=O)/C(=C/c2ccccc2)c2cc3c(cc21)N(C(C)=O)C(=O)/C3=C/c1ccccc1")
256
>>> measured_number("O=C(NC(Cc1cccnc1)C(=O)O)OCC1c2ccccc2-c2ccccc21 (stereo not given)")
166

###

Response field label takes T when melting point is strictly below 100 °C and F in all other cases.

>>> qualitative_label("COc1cccc(C(=O)N(NC(=O)c2ccccc2)C(C)(C)C)c1")
"F"
>>> qualitative_label("CC(=O)OCC1OC(Oc2ccc([N+](=O)[O-])cc2)C(OC(C)=O)C(OC(C)=O)C1OC(C)=O (stereo unspecified)")
"F"
>>> qualitative_label("CCN(CC)C(=O)c1ccccc1")
"T"
>>> qualitative_label("CCOP(=S)(OCC)SCC(=O)NC(C)C")
"T"
>>> qualitative_label("[O-][P+](c1ccccc1)(c1ccccc1)C1C=C(c2ccccc2)OC(c2ccccc2)=C1")
"F"
>>> qualitative_label("CC(C)OC(=O)C1(S(=O)(=O)c2ccc(Cl)cc2)CC1")
"T"
>>> qualitative_label("C#CC1(O)CCC2C3CCC4=CCCCC4C3C(=C)CC21CC (stereo unspecified)")
"F"

###

Form field: melting point (one value per entry).
Value type: melting point

>>> result("CC1C(=O)C23C4CC5C(C)(C)CCC(=O)C5(C)C2C(=O)CC1C3OC(C)(C)O4 (stereo unspecified)")
"197 °C"
>>> result("CCOC(=O)c1c(C)n(OC)c2ccc3nonc3c12")
"147 to 149 °C"
>>> result("Cc1cccc(NN=C2C(=O)N(C)C(=O)N(C)C2=O)c1")
"228 °C"
>>> result("O=C1[C@@H](Oc2ccccc2)[C@@H](c2ccccc2)N1[C@@H](Sc1ccccc1)c1ccccc1")
"194 °C"
>>> result("C/C=C/C(=O)NNc1ccccc1")
"190 °C"
>>> result("O=C(O)c1ccc(Cn2cccn2)cc1")
"192 to 193 °C"

###

Outcome: T for melting point of at least 100 °C; F for anything lower.

>>> qualitative_label("Cc1cc(C(F)(F)F)n2nc(N)c(/N=N/c3cccc(C(F)(F)F)c3)c2n1")
"T"
>>> qualitative_label("O=C(O)Cc1ccc(O)c([N+](=O)[O-])c1")
"T"
>>> qualitative_label("CCSc1nnc(NC(=O)C(F)(F)C(F)(F)C(F)(F)C(F)(F)C(F)(F)C(F)(F)C(F)(F)C(F)(F)F)s1")
"T"
>>> qualitative_label("CC1CC(C)(C)CC(OOC(C)(C)C)(OOC(C)(C)C)C1 (stereo not given)")
"F"
>>> qualitative_label("COc1ccc2c(c1)N(CCCN(C)C)c1ccccc1S2")
"F"
>>> qualitative_label("CC(C)CCCCCCCO")
"F"
>>> qualitative_label("CC(C)(C)CC(=O)OCC(=O)C1(O)CCC2C3CCC4=CC(=O)CCC4(C)C3C(O)CC21C (stereo not given)")
"T"
>>> qualitative_label("CC(=O)C[C@@]1(O)C(=O)c2ccccc2-c2ccccc21")
"F"
